These data points were gathered from paper PMC4155600.

- Target entity: T1, SpPot1 (Schizosaccharomyces pombe, UniProt O13988 1-555)
- T1 sequence: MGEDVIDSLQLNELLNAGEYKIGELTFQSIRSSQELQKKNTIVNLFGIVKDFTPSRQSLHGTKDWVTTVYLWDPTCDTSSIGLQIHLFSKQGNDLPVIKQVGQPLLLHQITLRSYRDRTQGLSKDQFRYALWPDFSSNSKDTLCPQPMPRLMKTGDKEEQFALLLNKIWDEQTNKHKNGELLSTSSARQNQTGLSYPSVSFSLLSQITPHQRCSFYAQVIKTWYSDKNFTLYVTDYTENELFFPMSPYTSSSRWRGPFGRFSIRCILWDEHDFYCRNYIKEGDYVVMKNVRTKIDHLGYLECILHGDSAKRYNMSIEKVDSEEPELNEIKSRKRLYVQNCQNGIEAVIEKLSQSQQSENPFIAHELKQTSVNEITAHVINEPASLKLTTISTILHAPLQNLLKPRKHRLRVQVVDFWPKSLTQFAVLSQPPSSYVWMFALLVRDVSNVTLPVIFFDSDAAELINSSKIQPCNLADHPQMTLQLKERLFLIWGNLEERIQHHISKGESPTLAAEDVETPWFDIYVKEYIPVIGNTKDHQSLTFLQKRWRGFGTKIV
- Procedure details: filter binding
Measurement type: pKd
# reply with the number alone; pKd is -log10 of concentration in mol/L

Looking for the measured pKd of GGTTACGGTTAC (ssDNA) [12mer] , can you help?
9.15
